experiment notes: luciferase-based ADP detection interference – biochemical, luminescence, cell-free, homogeneous, artefact control for GSK-3a inhibitor project, dose response (AID 463205);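 further: kinase-free counter-screen against the ADP-Glo detection reagents only; potency is for inhibitors that reduce the luminescence signal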
applied conditions: Cell-free ADP-Glo detection reagents, 5 uM ADP
The campaign covered roughly 2,400 compounds. About 20 (0.8%) were called active.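 How the source made its calls: active means AC50 no more than ten times the highest tested concentration, or full inhibition at every dose giving a flat fit (cut at about 30 µM in these data); inconclusive means flat fit with activity between 30% and 70%, or poor-quality invalid fit; inactive means AC50 more than ten times the top tested dose.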 The entries come from a sample that favours actives as a whole.
Labels: active, inactive

1) COCCOC(=O)c1[nH]c2c(c1C)C(=O)CC(c1cc(OC)c(OC)c(OC)c1)C2 (centres undefined) | inactive
2) Cc1nc(N2CCOCC2)nc(N2CCCCC2)c1[N+](=O)[O-] | inactive
3) CC(C)N=C(NC#N)SCc1ccc(F)cc1 | inactive
4) O=S(=O)(c1cccc(NC(=S)NCc2ccco2)c1)N1CCOCC1 | inactive
5) Cc1cccc(C(=O)O/N=C(\N)c2cccc([N+](=O)[O-])c2)c1 | inactive
6) COc1ccc(CCn2cnc(=O)c(C#N)c2C)cc1OC | inactive
7) CCOC(=O)/C(C#N)=C/c1cn(CCC(=O)O)nc1-c1cccc(Br)c1 | inactive
8) CCCCOC(=O)Nc1nnc(COc2ccccc2)s1 | inactive
9) COc1ccc(/C=C/c2nc(N)nc(-c3ccccc3O)n2)cc1OC | inactive
10) O=C(NCCN1CCN(Cc2ccccc2)CC1)Nc1cc(Cl)cc(Cl)c1 | inactive
11) O=C(COC(=O)c1cccc(S(=O)(=O)N2CCOCC2)c1)Nc1ncc(Cl)cc1Cl | inactive
12) NC(=O)c1ccc(NC(=O)CSc2nnc(-c3ccc4c(c3)OCO4)o2)cc1 | inactive
13) O=C(c1ccc2c3n(nc2c1)-c1ccccc1CO3)N1CCOCC1 | active
14) O=C(NC1(C(F)(F)F)NC(=O)N(Cc2cccnc2)C1=O)c1ccncc1 (centres undefined) | inactive

All figures here come from PubChem BioAssay AID463205.
